Data provenance is the supplement of paper PMC9112550.

test system: Escherichia coli TOP10; experiment: shrunken log2 fold change of peptide-encoding DNA abundance (4.5 h post-induction vs induction); higher = less antimicrobial activity (less host growth inhibition); settings: time post-induction: 4.5 h; library: site-saturation at positions 5, 18, 19, 20
shrunken log2 fold change of 0.06 or higher: Criterion met. Under 0.06: Criterion not met.

INSERT INTO assay_data (monomer_sequence, assigned_class) VALUES
  ('RRIRGRPPRLPRPRPRPAKLPRP', 'Criterion met'),
  ('RRIRWRPPRLPRPRPRPCNVPRP', 'Criterion not met'),
  ('RRIRQRPPRLPRPRPRPHNTPRP', 'Criterion not met'),
  ('RRIRVRPPRLPRPRPRPFLYPRP', 'Criterion not met'),
  ('RRIRRRPPRLPRPRPRPSQGPRP', 'Criterion met'),
  ('RRIRHRPPRLPRPRPRPYGCPRP', 'Criterion not met'),
  ('RRIRHRPPRLPRPRPRPRQKPRP', 'Criterion not met'),
  ('RRIRERPPRLPRPRPRPTCTPRP', 'Criterion met');

====

system: Escherichia coli TOP10; assay: shrunken log2 fold change of peptide-encoding DNA abundance (4.5 h post-induction vs induction); higher = less antimicrobial activity (less host growth inhibition); conditions: time post-induction: 4.5 h; library: site-saturation at positions 5, 18, 19, 20
metric name: shrunken log2 fold change

INSERT INTO measurements (monomer_sequence, reading) VALUES
  ('RRIRTRPPRLPRPRPRPMNEPRP', -0.172),
  ('RRIRCRPPRLPRPRPRPQIEPRP', -0.335),
  ('RRIRRRPPRLPRPRPRPYMAPRP', -0.69),
  ('RRIRCRPPRLPRPRPRPTWYPRP', -0.28),
  ('RRIRGRPPRLPRPRPRPQLLPRP', 0.253),
  ('RRIRMRPPRLPRPRPRPGRLPRP', 0.411),
  ('RRIRGRPPRLPRPRPRPLDVPRP', 0.326),
  ('RRIRVRPPRLPRPRPRPQSDPRP', -0.0819),
  ('RRIRLRPPRLPRPRPRPIPVPRP', -0.0985),
  ('RRIRTRPPRLPRPRPRPTRYPRP', 0.228),
  ('RRIRFRPPRLPRPRPRPPCVPRP', 0.0878),
  ('RRIRARPPRLPRPRPRPRVEPRP', 0.187),
  ('RRIRLRPPRLPRPRPRPQAKPRP', -0.0308),
  ('RRIRPRPPRLPRPRPRPDPAPRP', 0.326),
  ('RRIRYRPPRLPRPRPRPEWWPRP', -0.0484),
  ('RRIRRRPPRLPRPRPRPMGMPRP', 0.747),
  ('RRIRDRPPRLPRPRPRPVIWPRP', 0.0861),
  ('RRIRYRPPRLPRPRPRPCNLPRP', -0.958),
  ('RRIRRRPPRLPRPRPRPARFPRP', 0.709),
  ('RRIRGRPPRLPRPRPRPLMRPRP', 1.61),
  ('RRIRNRPPRLPRPRPRPAEEPRP', 0.119),
  ('RRIRPRPPRLPRPRPRPRWGPRP', 0.509),
  ('RRIRPRPPRLPRPRPRPMVWPRP', 0.212),
  ('RRIRIRPPRLPRPRPRPMVRPRP', -0.0105),
  ('RRIRSRPPRLPRPRPRPGPVPRP', 0.384),
  ('RRIRDRPPRLPRPRPRPGSWPRP', 0.817),
  ('RRIRIRPPRLPRPRPRPFYIPRP', -0.308),
  ('RRIRTRPPRLPRPRPRPTNTPRP', -0.536),
  ('RRIRDRPPRLPRPRPRPEQLPRP', 0.104),
  ('RRIRVRPPRLPRPRPRPQGIPRP', 0.0752),
  ('RRIRTRPPRLPRPRPRPAHLPRP', -0.000138),
  ('RRIRHRPPRLPRPRPRPVKNPRP', 0.0467),
  ('RRIRNRPPRLPRPRPRPQMNPRP', -0.614),
  ('RRIRGRPPRLPRPRPRPYNDPRP', -0.155),
  ('RRIRVRPPRLPRPRPRPKIHPRP', -0.205),
  ('RRIRLRPPRLPRPRPRPMDLPRP', -0.171),
  ('RRIRDRPPRLPRPRPRPNYNPRP', -0.865),
  ('RRIRPRPPRLPRPRPRPCHWPRP', 0.0406),
  ('RRIRMRPPRLPRPRPRPAPMPRP', 0.953),
  ('RRIRIRPPRLPRPRPRPCATPRP', -0.122),
  ('RRIRIRPPRLPRPRPRPPLTPRP', -0.0194),
  ('RRIRRRPPRLPRPRPRPHDVPRP', 0.0619),
  ('RRIRKRPPRLPRPRPRPQKWPRP', 0.0282),
  ('RRIRMRPPRLPRPRPRPWVGPRP', 0.171),
  ('RRIRDRPPRLPRPRPRPICRPRP', 0.266),
  ('RRIRIRPPRLPRPRPRPTMYPRP', -0.769),
  ('RRIRWRPPRLPRPRPRPIQAPRP', -0.0237),
  ('RRIRRRPPRLPRPRPRPHQNPRP', 0.769),
  ('RRIRNRPPRLPRPRPRPKALPRP', 0.0983),
  ('RRIRERPPRLPRPRPRPGSTPRP', -0.401),
  ('RRIRLRPPRLPRPRPRPWHCPRP', -0.0686),
  ('RRIRNRPPRLPRPRPRPNSTPRP', 2.34),
  ('RRIRCRPPRLPRPRPRPGKVPRP', 0.181),
  ('RRIRNRPPRLPRPRPRPPWQPRP', 0.161),
  ('RRIRLRPPRLPRPRPRPRRTPRP', 0.354),
  ('RRIRERPPRLPRPRPRPVDQPRP', 0.0107),
  ('RRIRERPPRLPRPRPRPSRGPRP', 0.49),
  ('RRIRLRPPRLPRPRPRPNTWPRP', -0.245),
  ('RRIRSRPPRLPRPRPRPYSDPRP', -0.0368),
  ('RRIRWRPPRLPRPRPRPAPEPRP', 0.603),
  ('RRIRSRPPRLPRPRPRPCRGPRP', -0.128),
  ('RRIRSRPPRLPRPRPRPCIAPRP', -0.22),
  ('RRIRPRPPRLPRPRPRPYCQPRP', -0.223);

====

tested on: Escherichia coli TOP10; experiment: shrunken log2 fold change of peptide-encoding DNA abundance (4.5 h post-induction vs induction); higher = less antimicrobial activity (less host growth inhibition); details: time post-induction: 4.5 h; library: site-saturation at positions 5, 18, 19, 20
shrunken log2 fold change of -0.03 or higher: TRUE. Under -0.03: FALSE.

INSERT INTO assay_data (monomer_sequence, assigned_class) VALUES
  ('RRIRYRPPRLPRPRPRPWPWPRP', 'TRUE'),
  ('RRIRKRPPRLPRPRPRPKNDPRP', 'TRUE'),
  ('RRIRDRPPRLPRPRPRPHTEPRP', 'FALSE'),
  ('RRIRVRPPRLPRPRPRPQERPRP', 'FALSE'),
  ('RRIRPRPPRLPRPRPRPTRVPRP', 'TRUE'),
  ('RRIRTRPPRLPRPRPRPEWNPRP', 'FALSE'),
  ('RRIRRRPPRLPRPRPRPSSKPRP', 'FALSE'),
  ('RRIRERPPRLPRPRPRPLRHPRP', 'TRUE');

====

Quick reference: shrunken log2 fold change of the listed items.
tested on: Escherichia coli TOP10; assay: shrunken log2 fold change of peptide-encoding DNA abundance (4.5 h post-induction vs induction); higher = less antimicrobial activity (less host growth inhibition); settings: time post-induction: 4.5 h; library: site-saturation at positions 5, 18, 19, 20;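 note: peptides expressed intracellularly from a pBAD plasmid library in pooled LB shake-flask culture, induced with 0.3% L-arabinose, DNA abundance read by NGS, three biological replicates, DESeq2 with apeglm shrinkage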
metric name: shrunken log2 fold change

INSERT INTO measurements (monomer_sequence, reading) VALUES
  ('RRIRCRPPRLPRPRPRPFGHPRP', 0.0616),
  ('RRIRARPPRLPRPRPRPMALPRP', 0.272),
  ('RRIRTRPPRLPRPRPRPIWAPRP', -0.085),
  ('RRIRMRPPRLPRPRPRPYAEPRP', 0.0571),
  ('RRIRMRPPRLPRPRPRPGCDPRP', 1.85),
  ('RRIRYRPPRLPRPRPRPKKHPRP', -0.646),
  ('RRIRQRPPRLPRPRPRPQGIPRP', -0.602),
  ('RRIRVRPPRLPRPRPRPTQIPRP', 0.149),
  ('RRIRNRPPRLPRPRPRPYGDPRP', -1.01),
  ('RRIRQRPPRLPRPRPRPQKTPRP', -0.064),
  ('RRIRYRPPRLPRPRPRPLVKPRP', -1.45),
  ('RRIRRRPPRLPRPRPRPFSYPRP', 0.016),
  ('RRIRCRPPRLPRPRPRPIHRPRP', -0.0331),
  ('RRIRCRPPRLPRPRPRPAPMPRP', 0.308),
  ('RRIRVRPPRLPRPRPRPFHFPRP', -0.238);
